Exercise: state measured Inhibition (%) for each of the molecules provided.
system: Mycobacterium tuberculosis H37Rv (ATCC-27294); test: MIC by MABA (Microplate Alamar Blue Assay), antimicrobial activity; type: cell-based; details: M. tuberculosis H37Rv (ATCC 27294); concentration not given
Answers are plain numbers, in %.

Previously resolved entries follow.
>  <Molecule>
O=Cc1cn(-c2ccc(Br)cc2)nn1 [114b]

>  <Observed measurement>
100

$$$$
>  <Molecule>
Cc1ccc(-n2cc(C=O)nn2)cc1 [114c]

>  <Observed measurement>
100

$$$$
>  <Molecule>
COc1ccccc1-n1cc(C=O)nn1 [114l]

>  <Observed measurement>
94

$$$$
>  <Molecule>
COc1ccc(-n2cc(C=O)nn2)cc1 [114d]

>  <Observed measurement>
100

$$$$

Could you now consider this next molecule?
State the recorded Inhibition (%) for this entry: COc1ccc(OC)c(-n2cc(C=O)nn2)c1 [114e]
59
